# Test system: Danio rerio embryo
# PROTOCOL_TEXT: BMC10 any morphological effect or mortality at 120 hpf; higher = less toxic
Can you tell me BMC10 any morphological effect or mortality for the items I'm about to list?
Answers are plain numbers, in µM.

Go through the items and report each one's BMC10 any morphological effect or mortality.
1. CC(=O)c1c(O)cc(O)c(C(C)=O)c1O
2. CCCCCCCCCCCCCCCC[n+]1ccn(Cc2ccccc2)c1C.[I-]
3. CC[C@H]1CN2CCc3cc(OC)c(OC)cc3[C@@H]2C[C@@H]1C[C@H]1NCCc2cc(O)c(OC)cc21

Key:
1.45
7.19
0.069
